Just for reference, the supplement of paper PMC6555819 is where these values come from.

Test system: PPARa:RXRa (NR concentration 270 nM, RXRa partner concentration 90 nM)
assay.details: PBM binding z-score (relative to random genomic background probes); higher = stronger binding; sequences stand for … in GC…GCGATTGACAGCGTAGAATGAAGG
Label Criterion met for high-side PBM binding z-score (at or above 4) and Criterion not met for low-side PBM binding z-score (below it).

These solved cases illustrate the format of a correct answer.
TGAATGAGGTTAAAGACCAGGGAACGTGGCGTCG: Criterion not met
AGTTAAAGTTCATCTAGGTAACGTAAGATATGCT: Criterion met
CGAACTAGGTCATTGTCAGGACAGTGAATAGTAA: Criterion met
CGTCAAAGTTCAACTAAGGTAACGGAAAGCACGC: Criterion met
ATCTCTCGGTAACAAGTTCAGTGAAAGAGAGGAC: Criterion not met
TCGAGTAGGTTAGGGGCATTGAGAATGGCGTCGA: Criterion not met

Request: Please tell me: is the sequence `AGAACGAGGGCACGCTGAGTTGTTAGCAGAGTAG` at or over 4 in terms of PBM binding z-score?
Result: Criterion not met

Request: Please tell me: is the sequence `CAAACAGGGTCAGCTAGGCCAGAGTAGGGACGGC` at or over 4 in terms of PBM binding z-score?
Result: Criterion met

Request: Please tell me: is the sequence `AGAATGAGGTTATACGTGGATCAGGGAAGAAAGT` at or over 4 in terms of PBM binding z-score?
Result: Criterion not met

Request: Please tell me: is the sequence `TCATATATGTAATACAGGTGAAAGTCGGCATCTA` at or over 4 in terms of PBM binding z-score?
Result: Criterion not met
